Target: GLP-2 (Homo sapiens, UniProt O95838)
Sequence (O95838 1-553): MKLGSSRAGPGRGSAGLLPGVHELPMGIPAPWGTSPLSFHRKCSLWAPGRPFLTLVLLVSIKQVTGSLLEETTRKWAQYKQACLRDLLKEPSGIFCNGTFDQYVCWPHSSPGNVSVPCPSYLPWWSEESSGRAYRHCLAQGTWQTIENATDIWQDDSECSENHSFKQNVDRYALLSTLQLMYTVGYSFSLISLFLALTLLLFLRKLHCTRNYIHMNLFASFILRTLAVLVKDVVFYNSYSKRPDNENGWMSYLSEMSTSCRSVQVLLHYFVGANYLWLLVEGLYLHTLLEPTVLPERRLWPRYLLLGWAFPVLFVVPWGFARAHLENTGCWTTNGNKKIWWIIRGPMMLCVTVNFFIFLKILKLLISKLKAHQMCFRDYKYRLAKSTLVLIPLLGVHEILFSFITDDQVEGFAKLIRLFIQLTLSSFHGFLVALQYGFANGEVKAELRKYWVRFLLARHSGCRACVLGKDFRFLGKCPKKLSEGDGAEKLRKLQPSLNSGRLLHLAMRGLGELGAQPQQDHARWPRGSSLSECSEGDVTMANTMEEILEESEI
Test: GLP-2 activity, cell-based cAMP assay (same method as Example 2)
Settings: Example 5
Ends that are not written are not given here.
readout: EC50 (µM)
API: value field is a number in µM; no unit string.

For the sequence shown here, HGEGTFTSDLSTYLDALAARDFINWLIQTKITD [HU020] , give the reported EC50.
0.65
